meta.source: ChEMBL document CHEMBL5113531

Parameter IC50: see the listing below.
target.or.test.system: Acetylcholinesterase (Homo sapiens, UniProt P22303)
Sequence (P22303 whole entry): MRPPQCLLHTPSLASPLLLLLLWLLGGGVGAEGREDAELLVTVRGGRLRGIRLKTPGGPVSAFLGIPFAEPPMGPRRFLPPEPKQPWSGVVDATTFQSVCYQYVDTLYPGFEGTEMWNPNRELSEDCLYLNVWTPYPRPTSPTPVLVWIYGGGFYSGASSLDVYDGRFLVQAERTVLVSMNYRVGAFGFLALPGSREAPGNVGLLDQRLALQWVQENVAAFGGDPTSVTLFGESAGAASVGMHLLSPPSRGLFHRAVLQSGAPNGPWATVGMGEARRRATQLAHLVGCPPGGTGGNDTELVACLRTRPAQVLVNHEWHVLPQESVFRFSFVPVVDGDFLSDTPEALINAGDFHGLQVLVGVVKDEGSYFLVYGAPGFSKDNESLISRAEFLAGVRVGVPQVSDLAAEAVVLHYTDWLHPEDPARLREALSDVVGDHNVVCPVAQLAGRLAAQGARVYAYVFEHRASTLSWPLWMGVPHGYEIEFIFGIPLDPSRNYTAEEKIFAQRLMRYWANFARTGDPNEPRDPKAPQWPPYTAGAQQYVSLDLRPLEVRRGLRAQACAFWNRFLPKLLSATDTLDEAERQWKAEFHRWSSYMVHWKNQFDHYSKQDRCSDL
method.summary: Inhibition of human recombinant AChe using acetylthiocholine iodide as substrate incubated for 10 mins by DTNB reagent based Ellman's method
# number only, unit µM dropped from output

### Prompt Give the reported IC50 for this compound. Cc1cccc2sc(NC(=O)CCN3CCN(Cc4cc(F)ccc4F)CC3)nc12
### Response 12.6

### Prompt Give the reported IC50 for this compound. Cc1cccc2sc(NC(=O)CCN3CCN(CCCN(C)C)CC3)nc12
### Response 0.41

### Prompt Give the reported IC50 for this compound. Cc1cccc2sc(NC(=O)CCN3CCN(CCN(C)C)CC3)nc12
### Response 0.48

### Prompt Give the reported IC50 for this compound. Cc1cccc2sc(NC(=O)CCN3CCN(C4CCN(C)CC4)CC3)nc12
### Response 10.5

====

Quick record: Ki, Sigma non-opioid intracellular receptor 1 (Cavia porcellus).
# number only, unit nM dropped from output

Use the examples below as a reference point.
>>> print(df.to_string())
                                   molecule  measurement_kind  unit_of_measure  experimental_result
0  Cc1cccc2sc(NC(=O)CCN3CCN(CC4CCCO4)CC3)nc12 (racemic)                Ki               nM                  109
1  Cc1cccc2sc(NC(=O)CCN3CCN(CCN(C)C)CC3)nc12                Ki               nM                 1000
2  Cc1cccc2sc(NC(=O)CCN3CCN(C4CCCCC4)CC3)nc12                Ki               nM                   24
3      CCN1CCN(CCC(=O)Nc2nc3c(C)cccc3s2)CC1                Ki               nM                  543

Let us examine a further case.
### Prompt Recall the reported Ki of CCOCCN1CCN(CCC(=O)Nc2nc3c(C)cccc3s2)CC1 on Sigma non-opioid intracellular receptor 1 (Cavia porcellus) and write it down.
Sequence (Q60492 whole entry): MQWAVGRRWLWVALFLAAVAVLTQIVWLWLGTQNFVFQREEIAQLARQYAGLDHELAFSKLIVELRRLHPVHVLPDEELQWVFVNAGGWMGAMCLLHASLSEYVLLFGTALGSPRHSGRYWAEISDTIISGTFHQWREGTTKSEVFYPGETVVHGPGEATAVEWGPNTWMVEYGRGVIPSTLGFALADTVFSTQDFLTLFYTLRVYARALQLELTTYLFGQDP
### Response 575
